Here the recorded EC50 is given for each entry.
- tested_system: human orexin type 2 receptor (hOX2R) (Homo sapiens)
- Construct: expressed in transfected cells
- Sequence (O43614 whole entry): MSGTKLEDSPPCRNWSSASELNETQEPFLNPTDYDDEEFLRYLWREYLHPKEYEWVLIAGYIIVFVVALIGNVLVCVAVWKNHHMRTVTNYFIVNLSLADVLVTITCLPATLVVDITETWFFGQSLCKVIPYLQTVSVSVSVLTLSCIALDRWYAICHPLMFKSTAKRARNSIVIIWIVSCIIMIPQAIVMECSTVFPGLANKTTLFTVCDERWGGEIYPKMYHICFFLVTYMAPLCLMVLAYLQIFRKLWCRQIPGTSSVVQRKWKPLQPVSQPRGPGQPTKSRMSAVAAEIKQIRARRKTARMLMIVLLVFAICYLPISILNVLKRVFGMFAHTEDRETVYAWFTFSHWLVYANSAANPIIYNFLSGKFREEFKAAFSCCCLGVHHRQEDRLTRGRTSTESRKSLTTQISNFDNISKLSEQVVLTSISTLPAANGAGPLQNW
- experimental_details: Measurement of orexin type 2 receptor agonist activity (CHO cells, FLIPR TETRA intracellular Ca2+)
- Assay type: cell-based
- conditions_used: CHO cells expressing hOX2R, Ca2+ fluorescence; read-out: hOX2 pEC50 (converted)
Where a SMILES comes first, the peptide text is derived from it. [ ]: non-standard residue; d: D form. Gly(NCH2CH2Ph) = O=C(O)CNCCc1ccccc1; Hyp = O=C(O)[C@@H]1C[C@@H](O)CN1; Aoc(2) = CCCCCC[C@H](N)C(=O)O; Phg = N[C@H](C(=O)O)c1ccccc1; Nle = CCCC[C@H](N)C(=O)O

CCCC[C@H](NC(=O)[C@@H](NC(=O)[C@H](CC(C)C)NC(=O)[C@@H](NC(=O)CNC(=O)[C@H](C)NC(=O)[C@H](C)NC(=O)[C@H](Cc1c[nH]cn1)NC(=O)[C@H](CC(N)=O)NC(=O)CNC(=O)[C@H](CO)NC(=O)[C@@H](C)NC(=O)[C@@H](Cc1ccccc1)NC(=O)[C@@H](CC(C)C)NC(=O)[C@@H](N)CC(C)C)[C@@H](C)CC)[C@@H](C)O)C(N)=O [compound 14] (H-L[dL][dF][dA]SGNHAAGILT[Nle]-NH2)
< 0.1 nM

// moving on: another record for EC50
Query string: Fill in: EC50 of CCCCCC[C@H](NC(=O)[C@@H](NC(=O)[C@H](CC(C)C)NC(=O)[C@@H](NC(=O)CNC(=O)[C@@H](NC(=O)[C@H](C)NC(=O)[C@@H]1C[C@@H](O)CN1C(=O)[C@H](CC(N)=O)NC(=O)CN(CCc1ccccc1)C(=O)[C@H](CCCNC(=N)N)NC(=O)[C@@H]1C[C@@H](O)CN1C(=O)[C@@H]1C[C@@H](O)CN1C(=O)[C@@H]1C[C@@H](O)CN1)c1ccccc1)[C@@H](C)CC)[C@@H](C)O)C(N)=O [compound 9] (H-[Hyp][Hyp][Hyp]R[Gly(NCH2CH2Ph)]N[Hyp]A[Phg]GILT[Aoc(2)]-NH2) is ___
Result string: < 0.1 nM
